Value source: paper PMC4014002

system_tested: human L-FABP T94A variant (Homo sapiens, UniProt P07148, T94A)
Sequence (P07148 whole entry T94A): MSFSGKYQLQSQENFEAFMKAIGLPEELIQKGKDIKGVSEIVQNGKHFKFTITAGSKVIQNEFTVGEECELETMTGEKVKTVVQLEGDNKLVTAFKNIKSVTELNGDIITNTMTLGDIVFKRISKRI
experimental_details: ANS displacement assay
Type: binding
measured_property: Ki (nM)

molecule: CCCCC/C=C\C/C=C\C/C=C\C/C=C\CCCC(=O)O
system_tested: human L-FABP T94A variant (Homo sapiens, UniProt P07148, T94A)
measured_property: Ki
quantitative_readout: 108
--
molecule: CCCCC/C=C\C/C=C\CCCCCCCC(=O)O
system_tested: human L-FABP T94A variant (Homo sapiens, UniProt P07148, T94A)
measured_property: Ki
quantitative_readout: 132
--
molecule: CC/C=C\C/C=C\C/C=C\C/C=C\C/C=C\C/C=C\CCC(=O)O [Docosahexaenoic acid, cis-4,7,10,13,16,19-docosahexaenoic acid]
system_tested: human L-FABP T94A variant (Homo sapiens, UniProt P07148, T94A)
measured_property: Ki
quantitative_readout: 65
